The origin of these recorded values is PubChem BioAssay (NCI).

Tested on: SK-MEL-2 melanoma
assay-name: NCI tumour cell line growth inhibition, 48 h
The reader will find reported TGI values listed item by item below.
experimental-endpoint: TGI

compound | test-target | measured
COC(=O)c1cc2cc(OC)c(OC)cc2cc(C(=O)OC)c1=O | SK-MEL-2 melanoma | > 100 µM
O=C1NC(c2cccc3ccccc23)Nc2ccc(O)cc21 (stereo unspecified) | SK-MEL-2 melanoma | 57.3 µM
O=c1c2ccccc2nc(-c2ccccc2Cl)n1NCC1(O)OCC(O)C(O)C1O (stereo unspecified) | SK-MEL-2 melanoma | > 100 µM
CCc1ccccc1N1C(=O)C(=O)C(c2nc3ccccc3s2)C(=O)C1=O | SK-MEL-2 melanoma | > 100 µM
C=C(CN1CCc2ccccc2C1)c1ccc(CCC(=O)Nc2ccccc2N)cc1 | SK-MEL-2 melanoma | 54 µM
CC12CCC3(C1)[C@H](CC2=O)C[C@@H](OC(=O)c1ccccc1)C1C(C)(CO)CCC[C@@]13C (stereo partly specified) | SK-MEL-2 melanoma | > 90.8 µM
C[Si](C)(C)/N=C1\N2C(=NC1(C(F)(F)F)C(F)(F)F)Sc1ccccc12 | SK-MEL-2 melanoma | > 50 µM
C[C@]12CCC3[C@@H](CC[C@@H]4c5nonc5CC[C@]34C)C1CCC2=O (stereo partly specified) | SK-MEL-2 melanoma | 56.5 µM
CCCCSC(=CC(=O)c1cccc(C(=O)C=C(SCCCC)SCCCC)n1)SCCCC | SK-MEL-2 melanoma | > 100 µM
NS(=O)(=O)c1ccc(N=Nc2ncccc2O)cc1 | SK-MEL-2 melanoma | > 100 µM
Clc1ccc(-c2noc(CN3CCCCC3)n2)cc1 | SK-MEL-2 melanoma | > 100 µM
C/C(=N/NC(=S)N1CCCCC1)c1cccc(/C(C)=N\NC(=S)N2CCCCC2)n1 | SK-MEL-2 melanoma | 4.2 µM
O=c1nc2n(c3nsnc13)CCO2 | SK-MEL-2 melanoma | > 100 µM
CC[C@H](Nc1cc(C)nc(N)n1)c1nc2cccc(NCc3ccc(C(=O)NO)cc3)c2c(=O)n1-c1ccccc1 | SK-MEL-2 melanoma | 7.37 µM
O=C(NNc1cn[nH]c(=O)n1)c1cccc2nc3ccccc3nc12 | SK-MEL-2 melanoma | > 100 µM
CCOP(=O)(OCC)OC1c2[nH]ccc2-c2cc(C(=O)OC)[nH]c2C1OC (stereo unspecified) | SK-MEL-2 melanoma | > 100 µM
CCCCCCC[CH2][Sn]([Cl])([Cl])[CH2]CCCCCCC | SK-MEL-2 melanoma | 7.47 µM
O=C(OC1C=C=CS(=O)(=O)CC#C/C=C\1)c1cnc2ccccc2n1 (stereo unspecified) | SK-MEL-2 melanoma | > 100 µM
CCOC(=O)NN(C(=O)OCC)C(=C(c1ccccc1)N1CCOCC1)N(NC(=O)OCC)C(=O)OCC | SK-MEL-2 melanoma | > 100 µM
Cc1ccc2c(c1)c(C1=C(c3cn(C)c4ccccc34)C(=O)NC1=O)cn2C | SK-MEL-2 melanoma | 6.81 µM
CCc1nc(N)nc(N)c1-c1ccc2c(c1)nnn2CCc1ccccc1 | SK-MEL-2 melanoma | 61.9 µM
